- target-of-assay: 17-beta-hydroxysteroid dehydrogenase type 3 (Rattus norvegicus) (UniProt O54939)
- Sequence (whole entry): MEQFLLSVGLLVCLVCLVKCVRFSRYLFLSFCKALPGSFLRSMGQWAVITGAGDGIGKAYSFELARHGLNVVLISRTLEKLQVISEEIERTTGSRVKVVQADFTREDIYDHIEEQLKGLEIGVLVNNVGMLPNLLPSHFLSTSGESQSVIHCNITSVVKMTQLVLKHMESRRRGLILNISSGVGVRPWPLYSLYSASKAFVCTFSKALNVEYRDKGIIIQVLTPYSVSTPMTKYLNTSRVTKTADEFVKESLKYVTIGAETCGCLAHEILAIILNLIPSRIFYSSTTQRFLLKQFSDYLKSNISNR
- assay-info: Inhibition of 17beta-HSD3 in Sprague-Dawley rat laydig cells at 100 uM
Activity calls are given as the source filed them. No cut-off for these calls is given here.
endpoint: inhibition

* COc1cc(/C=C2\CC/C(=C\c3ccc(OCCCN(C)C)c(OC)c3)C2=O)ccc1OCCCN(C)C | 38%
* O=C(/C=C/c1ccc(O)cc1)/C=C/c1ccc(O)cc1 | 30%
* O=C1/C(=C/c2ccc(OC3CCCOC3)cc2)CC/C1=C\c1ccc(OC2CCCOC2)cc1 (stereo not given) | inactive
* COc1cc(/C=C/C(=O)/C=C/c2cc(OC)c(OC)c(OC)c2)cc(OC)c1OC | inactive

Here is another molecule to look at.
Request: inhibition lookup needed for `COc1cc(/C=C2\CC/C(=C\c3cc(OC)c(OC)c(OC)c3)C2=O)cc(OC)c1OC` , thanks.
Response: 11%

Attribution: ChEMBL document CHEMBL1156212
